Origin of values: paper PMC10734772

test system: K562; test: MTT assay, K562 cells; assay type: cell-based; settings: Homo sapiens; K562, MTT, 24 h, range 0.3–200 μM, six replicates

{"STRUCTURE SMILES": "COc1ccc(CN2CCN(Cc3ccc(C(=O)Nc4ccc(C)c(Nc5cc(C)ccn5)c4)cc3)CC2)c(OC)c1OC", "UNITS OF MEASURE": "µM", "IC50": 35}

====

test system: Molt-4; assay: MTT assay, Molt-4 cells; assay type: cell-based; details: Homo sapiens, MOLT-4, 24 h, Molt-4, 30 μM, read-out: Viability rate
MEASURED PARAMETER: viability at 30 µM (%)

{"COMPOUND": "Cc1ccc(NC(=O)c2ccc(CN3CCN(C)CC3)cc2)cc1Nc1nccc(-c2cccnc2)n1 [imatinib, reference compound]", "MEASURED PARAMETER": "viability at 30 µM", "DATA VALUE": 63.3}
{"COMPOUND": "COc1ccc(CN2CCN(Cc3ccc(C(=O)Nc4ccc(C)c(Nc5nccc(C)n5)c4)cc3)CC2)c(OC)c1OC", "MEASURED PARAMETER": "viability at 30 µM", "DATA VALUE": 75.4}
{"COMPOUND": "Cc1ccnc(Nc2cc(NC(=O)c3ccc(CN4CCN(c5ncccn5)CC4)cc3)ccc2C)n1", "MEASURED PARAMETER": "viability at 30 µM", "DATA VALUE": 85.3}
{"COMPOUND": "Cc1ccnc(Nc2cc(NC(=O)c3ccc(CN4CCOCC4)cc3)ccc2C)c1", "MEASURED PARAMETER": "viability at 30 µM", "DATA VALUE": 62}

====

assay: MTT assay, Hek293T non-leukemic control cells; format: cell-based; conditions: human, Hek293T cells (non-leukemic control cell line), 15 μM, read-out: Viability rate
Lab note: compare viability at 24 h, 15 µM with 70%, writing Yes if less and No if equal or more.

{"COMPOUND": "Cc1ccc(NC(=O)c2ccc(CN3CCN(C)CC3)cc2)cc1Nc1nccc(-c2cccnc2)n1 [imatinib, reference compound]", "ASSIGNED CLASS": "Yes"}
{"COMPOUND": "COc1ccc(CN2CCN(Cc3ccc(C(=O)Nc4ccc(C)c(Nc5cc(C)ccn5)c4)cc3)CC2)c(OC)c1OC", "ASSIGNED CLASS": "No"}
{"COMPOUND": "Cc1ccnc(Nc2cc(NC(=O)c3ccc(CN4CCN(c5ncccn5)CC4)cc3)ccc2C)n1", "ASSIGNED CLASS": "Yes"}
{"COMPOUND": "Cc1ccc(NC(=O)c2ccc(CN3CCN(c4ncccn4)CC3)cc2)cc1Nc1cnccn1", "ASSIGNED CLASS": "No"}
{"COMPOUND": "Cc1ccnc(Nc2cc(NC(=O)c3ccc(CN4CCOCC4)cc3)ccc2C)c1", "ASSIGNED CLASS": "No"}
{"COMPOUND": "Cc1ccnc(Nc2cc(NC(=O)c3ccc(CN4CCOCC4)cc3)ccc2C)n1", "ASSIGNED CLASS": "No"}

====

Reported viability at 30 µM by item:
tested on: Reh; experiment: MTT assay, Reh cells; format: cell-based; settings: Homo sapiens, 24 h, 30 μM, read-out: Viability rate

{"COMPOUND": "Cc1ccnc(Nc2cc(NC(=O)c3ccc(CN4CCN(c5ncccn5)CC4)cc3)ccc2C)n1", "EXPERIMENTAL TARGET": "Reh", "viability at 30 µM, %": 87.9}
{"COMPOUND": "Cc1ccc(NC(=O)c2ccc(CN3CCN(c4ncccn4)CC3)cc2)cc1Nc1cnccn1", "EXPERIMENTAL TARGET": "Reh", "viability at 30 µM, %": 85.4}
{"COMPOUND": "Cc1ccnc(Nc2cc(NC(=O)c3ccc(CN4CCOCC4)cc3)ccc2C)n1", "EXPERIMENTAL TARGET": "Reh", "viability at 30 µM, %": 102}
{"COMPOUND": "COc1ccc(CN2CCN(Cc3ccc(C(=O)Nc4ccc(C)c(Nc5cc(C)ccn5)c4)cc3)CC2)c(OC)c1OC", "EXPERIMENTAL TARGET": "Reh", "viability at 30 µM, %": 65.6}
{"COMPOUND": "COc1ccc(CN2CCN(Cc3ccc(C(=O)Nc4ccc(C)c(Nc5nccc(C)n5)c4)cc3)CC2)c(OC)c1OC", "EXPERIMENTAL TARGET": "Reh", "viability at 30 µM, %": 88.6}
{"COMPOUND": "Cc1ccc(NC(=O)c2ccc(CN3CCN(C)CC3)cc2)cc1Nc1nccc(-c2cccnc2)n1 [imatinib, reference compound]", "EXPERIMENTAL TARGET": "Reh", "viability at 30 µM, %": 70.9}
{"COMPOUND": "Cc1ccnc(Nc2cc(NC(=O)c3ccc(CN4CCOCC4)cc3)ccc2C)c1", "EXPERIMENTAL TARGET": "Reh", "viability at 30 µM, %": 91.4}

====

Assay: MTT assay, Hek293T non-leukemic control cells
Type: cell-based
Conditions: human, Hek293T cells (non-leukemic control cell line), 200 μM, read-out: Viability rate
Protocol: K562, Jurkat, Molt-4, and Nalm-6 cell lines were cultured in RPMI-1640 medium (ECM2001, Euroclone), Reh cell line was cultured in DMEM medium (LM-D1111-Biosera) Hek293T cell line was cultured in IMDM medium (AL070A - HiMedia) supplemented with 10% heat-inactivated fetal bovine serum (F7524-Merck & Co., USA,) penicillin and streptomycin (P4333-Sigma Aldrich). […] Subsequently, viability rate of the cells at each concentration, as percentage, was determined by following formula (1): […]
As shown below, each of these compounds has a reported viability at 24 h, 200 µM value.

{"COMPOUND": "COc1ccc(CN2CCN(Cc3ccc(C(=O)Nc4ccc(C)c(Nc5nccc(C)n5)c4)cc3)CC2)c(OC)c1OC [Compound 6]", "viability at 24 h, 200 µM [%]": 47}
{"COMPOUND": "Cc1ccnc(Nc2cc(NC(=O)c3ccc(CN4CCN(c5ncccn5)CC4)cc3)ccc2C)n1 [Compound 5]", "viability at 24 h, 200 µM [%]": 50}
{"COMPOUND": "Cc1ccc(NC(=O)c2ccc(CN3CCN(c4ncccn4)CC3)cc2)cc1Nc1cnccn1 [Compound 7]", "viability at 24 h, 200 µM [%]": 55.1}
{"COMPOUND": "COc1ccc(CN2CCN(Cc3ccc(C(=O)Nc4ccc(C)c(Nc5cc(C)ccn5)c4)cc3)CC2)c(OC)c1OC [Compound 10]", "viability at 24 h, 200 µM [%]": 81}
{"COMPOUND": "Cc1ccc(NC(=O)c2ccc(CN3CCN(C)CC3)cc2)cc1Nc1nccc(-c2cccnc2)n1 [imatinib, reference compound]", "viability at 24 h, 200 µM [%]": 42.1}
{"COMPOUND": "Cc1ccnc(Nc2cc(NC(=O)c3ccc(CN4CCOCC4)cc3)ccc2C)c1 [Compound 9]", "viability at 24 h, 200 µM [%]": 42.8}
{"COMPOUND": "Cc1ccnc(Nc2cc(NC(=O)c3ccc(CN4CCOCC4)cc3)ccc2C)n1 [Compound 8]", "viability at 24 h, 200 µM [%]": 58.2}

====

test system: Reh; experiment: MTT assay, Reh cells; assay type: cell-based; details: Homo sapiens, 24 h, 1 μM, read-out: Viability rate
# viability at 1 µM values compiled below

{"MOLECULE": "Cc1ccnc(Nc2cc(NC(=O)c3ccc(CN4CCOCC4)cc3)ccc2C)c1", "viability at 1 µM, %": 100}
{"MOLECULE": "COc1ccc(CN2CCN(Cc3ccc(C(=O)Nc4ccc(C)c(Nc5cc(C)ccn5)c4)cc3)CC2)c(OC)c1OC", "viability at 1 µM, %": 92.4}
{"MOLECULE": "Cc1ccc(NC(=O)c2ccc(CN3CCN(c4ncccn4)CC3)cc2)cc1Nc1cnccn1", "viability at 1 µM, %": 109}
{"MOLECULE": "COc1ccc(CN2CCN(Cc3ccc(C(=O)Nc4ccc(C)c(Nc5nccc(C)n5)c4)cc3)CC2)c(OC)c1OC", "viability at 1 µM, %": 107}
{"MOLECULE": "Cc1ccnc(Nc2cc(NC(=O)c3ccc(CN4CCN(c5ncccn5)CC4)cc3)ccc2C)n1", "viability at 1 µM, %": 96.6}
{"MOLECULE": "Cc1ccc(NC(=O)c2ccc(CN3CCN(C)CC3)cc2)cc1Nc1nccc(-c2cccnc2)n1 [imatinib, reference compound]", "viability at 1 µM, %": 96.4}
{"MOLECULE": "Cc1ccnc(Nc2cc(NC(=O)c3ccc(CN4CCOCC4)cc3)ccc2C)n1", "viability at 1 µM, %": 102}

====

System: Jurkat
Experiment: MTT assay, Jurkat cells
Format: cell-based
Conditions: Homo sapiens, 5 μM, 24 h, read-out: Viability rate
Procedure: K562, Jurkat, Molt-4, and Nalm-6 cell lines were cultured in RPMI-1640 medium (ECM2001, Euroclone), Reh cell line was cultured in DMEM medium (LM-D1111-Biosera) Hek293T cell line was cultured in IMDM medium (AL070A - HiMedia) supplemented with 10% heat-inactivated fetal bovine serum (F7524-Merck & Co., USA,) penicillin and streptomycin (P4333-Sigma Aldrich). […] Subsequently, viability rate of the cells at each concentration, as percentage, was determined by following formula (1): […]

{"COMPOUND": "COc1ccc(CN2CCN(Cc3ccc(C(=O)Nc4ccc(C)c(Nc5cc(C)ccn5)c4)cc3)CC2)c(OC)c1OC [Compound 10]", "UNITS OF MEASURE": "%", "viability at 5 µM": 68.7}
{"COMPOUND": "Cc1ccnc(Nc2cc(NC(=O)c3ccc(CN4CCOCC4)cc3)ccc2C)n1 [Compound 8]", "UNITS OF MEASURE": "%", "viability at 5 µM": 78.8}
{"COMPOUND": "COc1ccc(CN2CCN(Cc3ccc(C(=O)Nc4ccc(C)c(Nc5nccc(C)n5)c4)cc3)CC2)c(OC)c1OC [Compound 6]", "UNITS OF MEASURE": "%", "viability at 5 µM": 69.8}
{"COMPOUND": "Cc1ccc(NC(=O)c2ccc(CN3CCN(C)CC3)cc2)cc1Nc1nccc(-c2cccnc2)n1 [imatinib, reference compound]", "UNITS OF MEASURE": "%", "viability at 5 µM": 60.7}
{"COMPOUND": "Cc1ccc(NC(=O)c2ccc(CN3CCN(c4ncccn4)CC3)cc2)cc1Nc1cnccn1 [Compound 7]", "UNITS OF MEASURE": "%", "viability at 5 µM": 75.6}
{"COMPOUND": "Cc1ccnc(Nc2cc(NC(=O)c3ccc(CN4CCOCC4)cc3)ccc2C)c1 [Compound 9]", "UNITS OF MEASURE": "%", "viability at 5 µM": 83}
{"COMPOUND": "Cc1ccnc(Nc2cc(NC(=O)c3ccc(CN4CCN(c5ncccn5)CC4)cc3)ccc2C)n1 [Compound 5]", "UNITS OF MEASURE": "%", "viability at 5 µM": 89.7}
